system.name: T1, rat alpha CGRP (SEQ ID NO: 82) (rat)
T1 construct: also called rat αCGRP; rat α-CGRP
T1 peptide: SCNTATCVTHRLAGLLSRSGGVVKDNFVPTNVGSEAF
protocol.notes: SPR, 37 C, mutein captured, CGRP analyte
recorded.metric: koff (s⁻¹)

INSERT INTO assay_data (binder, reading) VALUES
  ('lipocalin mutein SEQ ID NO: 10 (designed binder, biotinylated by NHS chemistry for capture in SPR) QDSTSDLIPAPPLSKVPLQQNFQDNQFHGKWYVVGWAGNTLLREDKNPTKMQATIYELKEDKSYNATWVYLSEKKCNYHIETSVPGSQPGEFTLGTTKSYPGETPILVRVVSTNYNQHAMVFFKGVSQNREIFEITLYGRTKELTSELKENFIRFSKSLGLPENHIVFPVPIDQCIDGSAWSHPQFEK', 0.000307),
  ('lipocalin mutein SEQ ID NO: 20 (designed binder, biotinylated by NHS chemistry for capture in SPR) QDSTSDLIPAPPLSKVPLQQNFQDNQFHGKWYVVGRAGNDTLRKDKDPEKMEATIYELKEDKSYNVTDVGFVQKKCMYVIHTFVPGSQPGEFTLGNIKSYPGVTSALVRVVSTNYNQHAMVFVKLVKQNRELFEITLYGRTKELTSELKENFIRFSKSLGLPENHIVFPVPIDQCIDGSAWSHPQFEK', '2.41e-05'),
  ('lipocalin mutein SEQ ID NO: 27 (designed binder, biotinylated by NHS chemistry for capture in SPR) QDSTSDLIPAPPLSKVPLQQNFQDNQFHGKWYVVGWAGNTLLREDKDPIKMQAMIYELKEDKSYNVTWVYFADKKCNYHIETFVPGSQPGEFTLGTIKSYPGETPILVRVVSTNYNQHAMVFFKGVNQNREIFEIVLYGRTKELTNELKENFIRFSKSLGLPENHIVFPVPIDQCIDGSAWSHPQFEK', '3.1e-05'),
  ('lipocalin mutein SEQ ID NO: 25 (designed binder, biotinylated by NHS chemistry for capture in SPR) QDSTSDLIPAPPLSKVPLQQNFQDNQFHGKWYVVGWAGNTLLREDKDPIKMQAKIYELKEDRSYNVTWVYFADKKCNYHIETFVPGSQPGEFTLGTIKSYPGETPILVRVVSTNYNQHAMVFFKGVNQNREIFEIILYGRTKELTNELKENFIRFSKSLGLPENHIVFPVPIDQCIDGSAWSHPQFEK', '2.12e-05'),
  ('lipocalin mutein SEQ ID NO: 13 (designed binder, biotinylated by NHS chemistry for capture in SPR) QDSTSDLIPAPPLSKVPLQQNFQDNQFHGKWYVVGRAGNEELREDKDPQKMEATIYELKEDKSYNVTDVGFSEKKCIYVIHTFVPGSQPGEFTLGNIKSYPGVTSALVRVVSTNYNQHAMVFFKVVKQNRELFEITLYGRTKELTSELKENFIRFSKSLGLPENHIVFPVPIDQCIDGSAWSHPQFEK', 0.000525),
  ('lipocalin mutein SEQ ID NO: 11 (designed binder, biotinylated by NHS chemistry for capture in SPR) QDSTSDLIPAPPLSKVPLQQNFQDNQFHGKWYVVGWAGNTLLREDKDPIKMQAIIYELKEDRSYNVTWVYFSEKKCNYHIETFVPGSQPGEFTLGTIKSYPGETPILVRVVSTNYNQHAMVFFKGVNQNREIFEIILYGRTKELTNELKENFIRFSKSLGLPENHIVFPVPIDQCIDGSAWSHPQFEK', '7.6e-05'),
  ('lipocalin mutein SEQ ID NO: 14 (designed binder, biotinylated by NHS chemistry for capture in SPR) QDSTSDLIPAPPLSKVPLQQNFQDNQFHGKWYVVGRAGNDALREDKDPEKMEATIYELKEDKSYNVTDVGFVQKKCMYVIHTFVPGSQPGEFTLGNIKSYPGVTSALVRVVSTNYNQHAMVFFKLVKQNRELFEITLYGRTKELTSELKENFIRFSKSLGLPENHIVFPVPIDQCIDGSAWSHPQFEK', 0.000339),
  ('lipocalin mutein SEQ ID NO: 4 (designed binder, biotinylated by NHS chemistry for capture in SPR) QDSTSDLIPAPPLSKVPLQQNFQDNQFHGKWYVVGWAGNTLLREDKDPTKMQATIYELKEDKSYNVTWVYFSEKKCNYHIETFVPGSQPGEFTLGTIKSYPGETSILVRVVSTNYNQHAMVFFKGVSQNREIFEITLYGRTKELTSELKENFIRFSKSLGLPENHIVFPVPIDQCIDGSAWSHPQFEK', 0.00621),
  ('lipocalin mutein SEQ ID NO: 15 (designed binder, biotinylated by NHS chemistry for capture in SPR) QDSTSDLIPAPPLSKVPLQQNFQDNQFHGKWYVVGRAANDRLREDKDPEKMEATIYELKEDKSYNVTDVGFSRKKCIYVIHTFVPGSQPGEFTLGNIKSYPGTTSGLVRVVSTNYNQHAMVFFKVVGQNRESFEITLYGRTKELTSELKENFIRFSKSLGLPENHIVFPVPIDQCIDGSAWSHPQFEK', 0.000274),
  ('lipocalin mutein SEQ ID NO: 21 (designed binder, biotinylated by NHS chemistry for capture in SPR) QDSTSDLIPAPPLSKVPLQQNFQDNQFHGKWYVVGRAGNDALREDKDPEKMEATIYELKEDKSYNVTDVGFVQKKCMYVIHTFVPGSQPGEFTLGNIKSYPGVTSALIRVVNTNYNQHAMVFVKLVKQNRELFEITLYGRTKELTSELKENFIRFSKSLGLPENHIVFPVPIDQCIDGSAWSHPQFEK', '3.7e-05'),
  ('lipocalin mutein SEQ ID NO: 17 (designed binder, biotinylated by NHS chemistry for capture in SPR) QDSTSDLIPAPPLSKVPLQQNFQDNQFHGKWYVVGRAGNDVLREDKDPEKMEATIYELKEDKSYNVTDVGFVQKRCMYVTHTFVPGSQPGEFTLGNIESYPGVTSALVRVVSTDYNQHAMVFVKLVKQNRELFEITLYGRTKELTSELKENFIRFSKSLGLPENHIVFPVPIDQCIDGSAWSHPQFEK', '8.44e-05');
